target: Stk1 kinase domain (Staphylococcus aureus); construct: cytosolic kinase domain, residues 1-348, pGEX-2T GST fusion from E. coli Rosetta BL21, GST cut off with thrombin; Mn2+ in place of Mg2+; test: Kinase-Glo ATP depletion assay
Sequence (A0A0H2XGG5 entry or part of it): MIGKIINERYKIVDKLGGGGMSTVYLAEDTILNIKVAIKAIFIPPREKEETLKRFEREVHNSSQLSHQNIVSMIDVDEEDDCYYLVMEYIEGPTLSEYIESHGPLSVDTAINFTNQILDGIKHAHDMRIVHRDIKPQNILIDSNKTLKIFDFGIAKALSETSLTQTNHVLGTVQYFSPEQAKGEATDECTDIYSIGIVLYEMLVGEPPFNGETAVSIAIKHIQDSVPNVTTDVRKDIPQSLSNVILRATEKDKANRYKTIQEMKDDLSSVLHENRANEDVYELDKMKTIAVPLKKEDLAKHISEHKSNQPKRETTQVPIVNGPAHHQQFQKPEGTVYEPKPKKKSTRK
pIC50: −log10 of the molar value.
endpoint.label: pIC50

Query string: Give the measured pIC50 for "CCn1c(-c2nonc2N)nc2c(C#CC(C)(C)O)ncc(OC[C@H]3CCCNC3)c21"
Result string: < 4.40

* * *

molecular target: PrkA kinase domain; PrkA(1-338) (Listeria monocytogenes); construct: gene LMRG_00967; cytosolic kinase domain, residues 1-338, pGEX-2T GST fusion from E. coli Rosetta BL21, GST cut off with thrombin; assay: Kinase-Glo ATP depletion assay; type: biochemical; conditions: read-out: Relative IC50 (95% CI)
Sequence (A0A0H3GI69 entry or part of it): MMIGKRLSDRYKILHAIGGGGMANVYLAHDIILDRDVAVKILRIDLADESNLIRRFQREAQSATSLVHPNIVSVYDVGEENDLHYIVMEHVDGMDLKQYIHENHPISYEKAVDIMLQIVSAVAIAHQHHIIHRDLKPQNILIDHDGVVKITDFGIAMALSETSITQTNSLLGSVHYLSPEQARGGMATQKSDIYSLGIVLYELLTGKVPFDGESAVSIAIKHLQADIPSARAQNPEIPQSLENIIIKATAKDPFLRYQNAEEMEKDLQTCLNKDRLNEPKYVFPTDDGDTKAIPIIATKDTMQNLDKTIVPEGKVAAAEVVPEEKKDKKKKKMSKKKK
endpoint.label: IC50 (nM)
Express the result in nM but write the number alone.

Query string: Give the measured IC50 for CCn1c(-c2nonc2N)nc2c(C#CC(C)(C)O)nc(OCCN)cc21 [GSK902056A]
Result string: 410

Query string: Give the measured IC50 for "CCn1c(-c2nonc2N)nc2c(C#CC(C)(C)O)ncc(OC[C@H]3CCCNC3)c21"
Result string: 840

Query string: Give the measured IC50 for CCn1c(-c2nonc2N)nc2c(C#CC(C)(C)O)ncc(OCC3CCNCC3)c21 [GSK554170A]
Result string: 450
